- assayed-target: 5-hydroxytryptamine receptor 2B (Rattus norvegicus)
- Sequence (P30994 whole entry): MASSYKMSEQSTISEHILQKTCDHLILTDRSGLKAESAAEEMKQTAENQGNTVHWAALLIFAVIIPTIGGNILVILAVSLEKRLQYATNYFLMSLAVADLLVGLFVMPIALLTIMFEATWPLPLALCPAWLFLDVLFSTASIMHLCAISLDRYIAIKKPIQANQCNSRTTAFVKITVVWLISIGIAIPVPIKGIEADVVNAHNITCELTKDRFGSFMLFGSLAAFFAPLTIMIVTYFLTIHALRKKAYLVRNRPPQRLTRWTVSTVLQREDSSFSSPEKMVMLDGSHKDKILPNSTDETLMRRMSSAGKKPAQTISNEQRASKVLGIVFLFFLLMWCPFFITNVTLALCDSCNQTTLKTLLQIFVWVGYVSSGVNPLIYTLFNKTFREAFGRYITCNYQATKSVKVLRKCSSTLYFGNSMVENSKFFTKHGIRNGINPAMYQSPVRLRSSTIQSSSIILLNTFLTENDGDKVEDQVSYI
- assay-explanation: Activity against 5HT2B receptor in longitudinal stomach fundus strips in wistar rats
compounds and their reported pEC50
Scale note: pEC50 = -log10(concentration in M).

// worked examples, pEC50 included
• C[C@H](N)Cn1ncc2ccc(O)cc21 = 8.70
• COc1ccc2[nH]cc(CC(C)N)c2c1 (centres undefined) = 8.57
• COc1cc(C[C@@H](C)N)c(OC)cc1I = 7.92
• C[C@H](N)Cn1ncc2ccc(O)c(F)c21 = 8.21

Prompt: Look at this compound and give its reported pEC50. NCCn1ncc2ccc(O)cc21
Completion: 8.07

Prompt: Look at this compound and give its reported pEC50. C[C@H](N)Cn1ncc2ccc(O)c(Cl)c21
Completion: 8.23

Prompt: Look at this compound and give its reported pEC50. Cc1c(O)ccc2cnn(C[C@H](C)N)c12
Completion: 8.05

Prompt: Look at this compound and give its reported pEC50. COc1ccc2cnn(C[C@H](C)N)c2c1
Completion: 8.38

Prompt: Look at this compound and give its reported pEC50. C[C@@H](N)Cn1ncc2ccc(O)cc21
Completion: 7.07

###

- assay-explanation: Distribution coefficient at pH 7.4
- Type: physicochemical
- applied-conditions: octanol/water
outcome-measure: logD
Please reply with the value in numeric form only.

// worked examples, logD included
- C[C@H](N)Cn1ncc2ccc(O)c(Cl)c21: 1.09
- NCCn1ncc2ccc(O)cc21: 0.254
- COc1cc(C[C@@H](C)N)c(OC)cc1I: 2.72
- C[C@H](N)Cn1ncc2ccc(O)cc21: 0.693
- COc1ccc2cnn(C[C@H](C)N)c2c1: 2.08
- Cc1c(O)ccc2cnn(C[C@H](C)N)c12: 1.28
- C[C@H](N)Cn1ncc2ccc(O)c(I)c21: 3
- C[C@H](N)Cn1ncc2ccc(O)c(F)c21: 0.394

Please turn your attention to the following entry.
Prompt: Look at this compound and give its reported logD. COc1ccc2[nH]cc(CCN(C)C)c2c1 [MEBUFOTENIN]
Completion: 3.3

###

- assayed-target: monoamine oxidase B (MAO-B) (Rattus norvegicus, UniProt P19643)
- Sequence (P19643 whole entry): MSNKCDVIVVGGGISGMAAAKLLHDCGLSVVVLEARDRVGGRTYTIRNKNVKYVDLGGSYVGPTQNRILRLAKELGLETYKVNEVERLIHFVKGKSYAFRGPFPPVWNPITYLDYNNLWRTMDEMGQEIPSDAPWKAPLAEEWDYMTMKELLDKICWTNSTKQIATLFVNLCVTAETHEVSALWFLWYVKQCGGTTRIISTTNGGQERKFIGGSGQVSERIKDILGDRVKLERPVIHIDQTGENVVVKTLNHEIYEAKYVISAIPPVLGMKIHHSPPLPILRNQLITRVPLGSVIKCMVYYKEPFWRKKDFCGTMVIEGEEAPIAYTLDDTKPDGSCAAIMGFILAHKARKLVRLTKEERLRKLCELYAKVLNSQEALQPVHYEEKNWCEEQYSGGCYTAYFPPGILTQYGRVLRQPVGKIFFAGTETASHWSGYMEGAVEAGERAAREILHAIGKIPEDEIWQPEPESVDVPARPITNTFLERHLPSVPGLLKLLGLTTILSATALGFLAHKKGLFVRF
- assay-explanation: Inhibition of monoamine oxidase B in rat brain at 10 uM
- Format: tissue-based
outcome-measure: inhibition at 10 µM (%)
State the answer as a number, implicitly in %.

Prompt: Look up inhibition at 10 µM with monoamine oxidase B (MAO-B) (Rattus norvegicus, UniProt P19643) for this molecule: C[C@H](N)Cn1ncc2ccc(O)cc21
Completion: -18.4

###

- assayed-target: 5-hydroxytryptamine receptor 7 (Homo sapiens)
- Sequence (P34969 whole entry): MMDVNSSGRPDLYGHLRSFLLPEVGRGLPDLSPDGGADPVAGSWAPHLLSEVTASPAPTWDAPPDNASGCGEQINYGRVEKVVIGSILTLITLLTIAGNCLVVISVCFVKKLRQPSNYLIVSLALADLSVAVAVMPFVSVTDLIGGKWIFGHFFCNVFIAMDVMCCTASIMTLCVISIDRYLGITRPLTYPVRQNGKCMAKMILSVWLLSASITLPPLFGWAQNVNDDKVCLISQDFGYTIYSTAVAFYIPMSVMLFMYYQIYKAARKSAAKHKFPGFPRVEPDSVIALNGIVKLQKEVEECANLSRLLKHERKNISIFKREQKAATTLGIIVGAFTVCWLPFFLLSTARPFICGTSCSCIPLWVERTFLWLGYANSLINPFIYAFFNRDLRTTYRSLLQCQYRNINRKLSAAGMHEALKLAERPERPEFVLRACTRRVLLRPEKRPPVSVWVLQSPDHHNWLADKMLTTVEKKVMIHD
- assay-explanation: Activity at 5HT7 receptor expressed in human corneal epithelial CEPI-17-CL4 cells by adenylyl cyclase assay
outcome-measure: pEC50
Scale note: pEC50 = -log10(concentration in M).

Prompt: Look at this compound and give its reported pEC50. C[C@H](N)Cn1ncc2ccc(O)cc21
Completion: 5.25

###

compounds and their reported pEC50
- assayed-target: UniProt:P18825
- Sequence (P18825 whole entry): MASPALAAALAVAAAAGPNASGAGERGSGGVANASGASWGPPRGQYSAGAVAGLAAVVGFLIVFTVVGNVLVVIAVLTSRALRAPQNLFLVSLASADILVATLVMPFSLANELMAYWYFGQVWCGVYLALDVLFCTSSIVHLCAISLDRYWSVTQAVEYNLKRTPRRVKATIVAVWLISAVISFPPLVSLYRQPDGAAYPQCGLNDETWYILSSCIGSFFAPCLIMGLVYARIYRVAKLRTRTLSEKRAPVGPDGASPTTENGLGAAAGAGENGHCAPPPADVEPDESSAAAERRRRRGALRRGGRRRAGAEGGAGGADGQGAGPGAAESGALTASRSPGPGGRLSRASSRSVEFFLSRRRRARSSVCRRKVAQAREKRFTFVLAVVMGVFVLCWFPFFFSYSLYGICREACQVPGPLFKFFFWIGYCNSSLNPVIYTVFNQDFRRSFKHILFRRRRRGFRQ
- assay-explanation: Activity at adrenergic Alpha-2C receptor expressed in rat-mouse hybrid […] cell by adenylyl cyclase assay
Scale note: pEC50 = -log10(concentration in M).

* C[C@@H](N)Cn1ncc2ccc(O)cc21 | 5.25

Please turn your attention to the following entry.
Prompt: Look at this compound and give its reported pEC50. C[C@H](N)Cn1ncc2ccc(O)cc21
Completion: 5.00

###

- assayed-target: Alpha-2A adrenergic receptor (Homo sapiens, UniProt P08913)
- Sequence (P08913 whole entry): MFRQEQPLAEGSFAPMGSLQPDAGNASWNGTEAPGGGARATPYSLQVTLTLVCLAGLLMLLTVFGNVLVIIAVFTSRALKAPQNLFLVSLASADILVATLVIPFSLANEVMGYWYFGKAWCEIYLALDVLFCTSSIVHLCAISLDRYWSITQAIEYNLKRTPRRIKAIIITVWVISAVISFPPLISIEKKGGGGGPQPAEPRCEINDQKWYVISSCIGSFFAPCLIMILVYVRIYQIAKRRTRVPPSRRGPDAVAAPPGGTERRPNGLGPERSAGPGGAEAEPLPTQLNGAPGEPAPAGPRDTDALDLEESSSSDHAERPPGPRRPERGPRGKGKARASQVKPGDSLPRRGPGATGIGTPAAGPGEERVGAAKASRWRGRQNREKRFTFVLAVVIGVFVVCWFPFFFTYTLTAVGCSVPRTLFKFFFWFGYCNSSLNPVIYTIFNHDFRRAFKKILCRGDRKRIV
outcome-measure: Ki (nM)
State the answer as a number, implicitly in nM.

Prompt: Look up Ki with Alpha-2A adrenergic receptor (Homo sapiens, UniProt P08913) for this compound: C[C@H](N)Cn1ncc2ccc(O)cc21
Completion: 2270

###

- System: MDR1 (P-gp)
- assay-explanation: Permeability from basolateral to apical side of the MDCK cell transfected with human MDR1
- Assay type: ADME, cell-based
compounds and their reported Papp B→A

• NCCn1ncc2ccc(O)cc21 = 0.6 ×10⁻⁶ cm/s
• COc1ccc2cnn(C[C@H](C)N)c2c1 = 19.5 ×10⁻⁶ cm/s
• COc1ccc2[nH]cc(CCN(C)C)c2c1 = 14.4 ×10⁻⁶ cm/s
• C[C@H](N)Cn1ncc2ccc(O)c(I)c21 = 3.46 ×10⁻⁶ cm/s
• COc1cc(C[C@@H](C)N)c(OC)cc1I = 23.2 ×10⁻⁶ cm/s
• Cc1c(O)ccc2cnn(C[C@H](C)N)c12 = 3.12 ×10⁻⁶ cm/s

Prompt: Look at this compound and give its reported Papp B→A. C[C@H](N)Cn1ncc2ccc(O)c(Cl)c21
Completion: 4.94 ×10⁻⁶ cm/s

Prompt: Look at this compound and give its reported Papp B→A. C[C@H](N)Cn1ncc2ccc(O)cc21
Completion: 0.88 ×10⁻⁶ cm/s

Prompt: Look at this compound and give its reported Papp B→A. C[C@H](N)Cn1ncc2ccc(O)c(F)c21
Completion: 1.66 ×10⁻⁶ cm/s

###

- assayed-target: 5-hydroxytryptamine receptor 1B (Homo sapiens, UniProt P28222)
- Sequence (P28222 whole entry): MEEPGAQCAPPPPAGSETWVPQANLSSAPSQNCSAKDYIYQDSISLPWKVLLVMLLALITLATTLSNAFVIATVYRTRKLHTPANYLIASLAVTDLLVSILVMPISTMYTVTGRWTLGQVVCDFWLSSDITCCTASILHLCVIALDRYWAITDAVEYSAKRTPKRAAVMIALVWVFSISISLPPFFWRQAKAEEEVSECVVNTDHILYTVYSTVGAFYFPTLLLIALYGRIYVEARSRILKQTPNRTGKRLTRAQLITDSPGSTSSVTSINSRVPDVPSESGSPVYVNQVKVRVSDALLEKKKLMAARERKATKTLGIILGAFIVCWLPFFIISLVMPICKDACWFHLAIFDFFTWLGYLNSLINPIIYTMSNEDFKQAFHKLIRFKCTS
outcome-measure: Ki

Prompt: Look at this molecule and give its reported Ki. C[C@H](N)Cn1ncc2ccc(O)cc21
Completion: > 10 µM

###

- assayed-target: 5-hydroxytryptamine receptor 2A (Rattus norvegicus)
- Sequence (P14842 whole entry): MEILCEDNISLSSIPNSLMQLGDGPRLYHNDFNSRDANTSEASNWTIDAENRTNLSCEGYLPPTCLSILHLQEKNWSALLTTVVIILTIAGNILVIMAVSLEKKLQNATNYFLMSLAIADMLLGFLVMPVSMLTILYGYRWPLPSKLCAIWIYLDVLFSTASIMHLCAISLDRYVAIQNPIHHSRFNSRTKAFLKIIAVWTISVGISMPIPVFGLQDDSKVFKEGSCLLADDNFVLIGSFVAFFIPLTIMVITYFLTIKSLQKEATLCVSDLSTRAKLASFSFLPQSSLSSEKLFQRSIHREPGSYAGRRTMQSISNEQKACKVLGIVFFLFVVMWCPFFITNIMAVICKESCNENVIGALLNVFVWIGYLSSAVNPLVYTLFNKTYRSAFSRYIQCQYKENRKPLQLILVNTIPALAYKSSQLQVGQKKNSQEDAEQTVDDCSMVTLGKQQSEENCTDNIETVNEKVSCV
- assay-explanation: Activity against 5HT2A mediated intracellular calcium mobilization by FLIPR in rat vascular smooth muscle cells
compounds and their reported EC50
State the answer as a number, implicitly in nM.

- C[C@H](N)Cn1ncc2ccc(O)cc21: 42.7
- NCCn1ncc2ccc(O)cc21: 74.4
- COc1ccc2[nH]cc(CC(C)N)c2c1 (centres undefined): 47.5

Please turn your attention to the following entry.
Prompt: Look up EC50 with 5-hydroxytryptamine receptor 2A (Rattus norvegicus) for this compound: COc1cc(C[C@@H](C)N)c(OC)cc1I
Completion: 19.8

###

- assayed-target: UniProtKB P08913
- assay-explanation: Activity at adrenergic alpha2A receptor expressed in human clonic adenocarcinoma HT29 cell by […]
- Type: functional, cell-based, HT-29
compounds and their reported EC50
State the answer as a number, implicitly in nM.

* C[C@@H](N)Cn1ncc2ccc(O)cc21 | 1990

Prompt: Look up EC50 with UniProtKB P08913 for this compound: C[C@H](N)Cn1ncc2ccc(O)cc21
Completion: 2600

###

- assayed-target: Serotonin 3 (5-HT3) receptor
- assay-explanation: Inhibitory activity against 5HT3 receptor
outcome-measure: Ki

Prompt: Look up Ki with Serotonin 3 (5-HT3) receptor for this molecule: C[C@H](N)Cn1ncc2ccc(O)cc21
Completion: > 10 µM

###

- assayed-target: 5-hydroxytryptamine receptor 2A (Homo sapiens, UniProt P28223)
- Sequence (P28223 whole entry): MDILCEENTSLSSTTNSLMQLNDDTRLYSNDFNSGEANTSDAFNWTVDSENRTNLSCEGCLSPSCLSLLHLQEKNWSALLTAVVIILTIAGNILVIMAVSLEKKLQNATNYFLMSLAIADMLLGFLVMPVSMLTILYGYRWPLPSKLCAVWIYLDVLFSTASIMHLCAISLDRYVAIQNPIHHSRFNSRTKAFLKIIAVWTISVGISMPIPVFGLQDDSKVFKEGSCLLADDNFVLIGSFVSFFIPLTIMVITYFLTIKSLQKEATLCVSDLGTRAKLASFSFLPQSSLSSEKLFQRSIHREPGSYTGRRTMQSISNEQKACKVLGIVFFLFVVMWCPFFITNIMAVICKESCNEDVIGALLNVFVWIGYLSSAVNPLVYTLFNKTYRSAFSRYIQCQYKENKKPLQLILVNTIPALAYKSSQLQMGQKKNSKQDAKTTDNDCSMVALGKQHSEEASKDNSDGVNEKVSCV
outcome-measure: pKi
Scale note: pKi = -log10(concentration in M).

- NCCn1ncc2ccc(O)cc21: 7.70

Prompt: Look up pKi with 5-hydroxytryptamine receptor 2A (Homo sapiens, UniProt P28223) for this compound: C[C@H](N)Cn1ncc2ccc(O)c(I)c21
Completion: 7.68

Prompt: Look up pKi with 5-hydroxytryptamine receptor 2A (Homo sapiens, UniProt P28223) for this compound: C[C@H](N)Cn1ncc2ccc(O)cc21
Completion: 7.92

Prompt: Look up pKi with 5-hydroxytryptamine receptor 2A (Homo sapiens, UniProt P28223) for this compound: C[C@H](N)Cn1ncc2ccc(O)c(F)c21
Completion: 8.24

Prompt: Look up pKi with 5-hydroxytryptamine receptor 2A (Homo sapiens, UniProt P28223) for this compound: C[C@H](N)Cn1ncc2ccc(O)c(Cl)c21
Completion: 7.92

Prompt: Look up pKi with 5-hydroxytryptamine receptor 2A (Homo sapiens, UniProt P28223) for this compound: Cc1c(O)ccc2cnn(C[C@H](C)N)c12
Completion: 8.74

Prompt: Look up pKi with 5-hydroxytryptamine receptor 2A (Homo sapiens, UniProt P28223) for this compound: C[C@@H](N)Cn1ncc2ccc(O)cc21
Completion: 6.98

Prompt: Look up pKi with 5-hydroxytryptamine receptor 2A (Homo sapiens, UniProt P28223) for this compound: COc1ccc2cnn(C[C@H](C)N)c2c1
Completion: 7.80
